assay: Slug (compact) hardness, Schleuniger hardness tablet tester; format: physicochemical; conditions: Table 3A; low drug loading: 35.2 wt % azithromycin, 54.8 wt % dicalcium phosphate anhydrous; long blend
property.label: Avg Slug Hardness (kP)
Give bare numbers, in kP.

// known answers, use as guide
compound | Avg Slug Hardness (kP)
CCC1OC(=O)C(C)C(O[C@H]2C[C@@](C)(OC)[C@@H](O)C(C)O2)C(C)[C@@H](OC2OC(C)CC(N(C)C)[C@H]2O)[C@@](C)(O)C[C@@H](C)CN(C)[C@H](C)[C@@H](O)[C@]1(C)O (stereo partly shown) [Form F] | 22
CC[C@H]1OC(=O)[C@H](C)[C@@H](O[C@H]2C[C@@](C)(OC)[C@@H](O)[C@H](C)O2)[C@H](C)[C@@H](O[C@@H]2O[C@H](C)C[C@H](N(C)C)[C@H]2O)[C@](C)(O)C[C@@H](C)CN(C)[C@H](C)[C@@H](O)[C@]1(C)O [Form A, azithromycin dihydrate, reference compound] | 13
CCC1OC(=O)C(C)C(O[C@H]2C[C@@](C)(OC)[C@@H](O)C(C)O2)C(C)[C@@H](OC2OC(C)CC(N(C)C)[C@H]2O)[C@@](C)(O)C[C@@H](C)CN(C)[C@H](C)[C@@H](O)[C@]1(C)O (stereo partly shown) [Form M] | 11

Then this compound:
Query: Give the reported value of Avg Slug Hardness for this record: CCC1OC(=O)C(C)C(O[C@H]2C[C@@](C)(OC)[C@@H](O)C(C)O2)C(C)[C@@H](OC2OC(C)CC(N(C)C)[C@H]2O)[C@@](C)(O)C[C@@H](C)CN(C)[C@H](C)[C@@H](O)[C@]1(C)O (stereo partly shown) [Form J]
Reply: 14

====

Test: Density and Carr's Compressibility Index (flowability) of dry blends and dry granulations
Format: physicochemical
Conditions: Table 3A; low drug loading: 35.2 wt % azithromycin, 54.8 wt % dicalcium phosphate anhydrous; long blend
From the text: Carr's Compressibility Index was used to evaluate the flowability of the four dry granulations. Carr's Compressibility Index is a simple test to evaluate flowability by comparing both the initial and final (tapped) bulk volumes and the rate of packing down. A useful empirical guide to flow is given by Carr's compressibility index: Compressibility Index(%)=[(tapped density−initial density)/tapped density]×100 […] The procedure is described in Int. J. Pharm. Tech. & Prod. Mfr., 6(3) 10-16, 1985.
property.label: Granulation Carr's Index (%)
One number for each entry, in %.

Study these solved cases before continuing.
compound | Granulation Carr's Index / %
CCC1OC(=O)C(C)C(O[C@H]2C[C@@](C)(OC)[C@@H](O)C(C)O2)C(C)[C@@H](OC2OC(C)CC(N(C)C)[C@H]2O)[C@@](C)(O)C[C@@H](C)CN(C)[C@H](C)[C@@H](O)[C@]1(C)O (stereo partly shown) [Form J] | 22
CCC1OC(=O)C(C)C(O[C@H]2C[C@@](C)(OC)[C@@H](O)C(C)O2)C(C)[C@@H](OC2OC(C)CC(N(C)C)[C@H]2O)[C@@](C)(O)C[C@@H](C)CN(C)[C@H](C)[C@@H](O)[C@]1(C)O (stereo partly shown) [Form M] | 28
CCC1OC(=O)C(C)C(O[C@H]2C[C@@](C)(OC)[C@@H](O)C(C)O2)C(C)[C@@H](OC2OC(C)CC(N(C)C)[C@H]2O)[C@@](C)(O)C[C@@H](C)CN(C)[C@H](C)[C@@H](O)[C@]1(C)O (stereo partly shown) [Form F] | 22

Query: Quick one: give measured Granulation Carr's Index for CC[C@H]1OC(=O)[C@H](C)[C@@H](O[C@H]2C[C@@](C)(OC)[C@@H](O)[C@H](C)O2)[C@H](C)[C@@H](O[C@@H]2O[C@H](C)C[C@H](N(C)C)[C@H]2O)[C@](C)(O)C[C@@H](C)CN(C)[C@H](C)[C@@H](O)[C@]1(C)O [Form A, azithromycin dihydrate, reference compound]
Reply: 26

====

experiment: Density and Carr's Compressibility Index (flowability) of dry blends and dry granulations; assay type: physicochemical; settings: Table 3A; low drug loading: 35.2 wt % azithromycin, 54.8 wt % dicalcium phosphate anhydrous; long blend
property.label: Granulation Density Tapped (g/cc)
One number for each entry, in g/cc.

Record excerpt, results attached:
molecule | unit.label | Granulation Density Tapped
CCC1OC(=O)C(C)C(O[C@H]2C[C@@](C)(OC)[C@@H](O)C(C)O2)C(C)[C@@H](OC2OC(C)CC(N(C)C)[C@H]2O)[C@@](C)(O)C[C@@H](C)CN(C)[C@H](C)[C@@H](O)[C@]1(C)O (stereo partly shown) [Form F] | g/cc | 1.08
CCC1OC(=O)C(C)C(O[C@H]2C[C@@](C)(OC)[C@@H](O)C(C)O2)C(C)[C@@H](OC2OC(C)CC(N(C)C)[C@H]2O)[C@@](C)(O)C[C@@H](C)CN(C)[C@H](C)[C@@H](O)[C@]1(C)O (stereo partly shown) [Form J] | g/cc | 1.12

Please go through the list and note Granulation Density Tapped for each molecule.
1. CCC1OC(=O)C(C)C(O[C@H]2C[C@@](C)(OC)[C@@H](O)C(C)O2)C(C)[C@@H](OC2OC(C)CC(N(C)C)[C@H]2O)[C@@](C)(O)C[C@@H](C)CN(C)[C@H](C)[C@@H](O)[C@]1(C)O (stereo partly shown) [Form M]
2. CC[C@H]1OC(=O)[C@H](C)[C@@H](O[C@H]2C[C@@](C)(OC)[C@@H](O)[C@H](C)O2)[C@H](C)[C@@H](O[C@@H]2O[C@H](C)C[C@H](N(C)C)[C@H]2O)[C@](C)(O)C[C@@H](C)CN(C)[C@H](C)[C@@H](O)[C@]1(C)O [Form A, azithromycin dihydrate, reference compound]

Reply:
1.14
1.19

====

Assay: Density and Carr's Compressibility Index (flowability) of dry blends and dry granulations
Type: physicochemical
Conditions: Table 3A; low drug loading: 35.2 wt % azithromycin, 54.8 wt % dicalcium phosphate anhydrous; long blend
From the text: Carr's Compressibility Index was used to evaluate the flowability of the four dry granulations. Carr's Compressibility Index is a simple test to evaluate flowability by comparing both the initial and final (tapped) bulk volumes and the rate of packing down. A useful empirical guide to flow is given by Carr's compressibility index: Compressibility Index(%)=[(tapped density−initial density)/tapped density]×100 […] The procedure is described in Int. J. Pharm. Tech. & Prod. Mfr., 6(3) 10-16, 1985.
property.label: Granulation Density As Is (g/cc)
One number for each entry, in g/cc.

compound | unit.label | Granulation Density As Is
CCC1OC(=O)C(C)C(O[C@H]2C[C@@](C)(OC)[C@@H](O)C(C)O2)C(C)[C@@H](OC2OC(C)CC(N(C)C)[C@H]2O)[C@@](C)(O)C[C@@H](C)CN(C)[C@H](C)[C@@H](O)[C@]1(C)O (stereo partly shown) [Form F] | g/cc | 0.84
CC[C@H]1OC(=O)[C@H](C)[C@@H](O[C@H]2C[C@@](C)(OC)[C@@H](O)[C@H](C)O2)[C@H](C)[C@@H](O[C@@H]2O[C@H](C)C[C@H](N(C)C)[C@H]2O)[C@](C)(O)C[C@@H](C)CN(C)[C@H](C)[C@@H](O)[C@]1(C)O [Form A, azithromycin dihydrate, reference compound] | g/cc | 0.89
CCC1OC(=O)C(C)C(O[C@H]2C[C@@](C)(OC)[C@@H](O)C(C)O2)C(C)[C@@H](OC2OC(C)CC(N(C)C)[C@H]2O)[C@@](C)(O)C[C@@H](C)CN(C)[C@H](C)[C@@H](O)[C@]1(C)O (stereo partly shown) [Form J] | g/cc | 0.87

Query: Name the recorded Granulation Density As Is of the compound listed here: CCC1OC(=O)C(C)C(O[C@H]2C[C@@](C)(OC)[C@@H](O)C(C)O2)C(C)[C@@H](OC2OC(C)CC(N(C)C)[C@H]2O)[C@@](C)(O)C[C@@H](C)CN(C)[C@H](C)[C@@H](O)[C@]1(C)O (stereo partly shown) [Form M]
Reply: 0.82

====

Would you mind telling me the reported Brittle Fracture Index (BFI) of each entry?
assay: Indices of tableting performance (Hiestand) of bulk azithromycin; type: physicochemical; conditions: forms N, M, G, A milled, F and J unmilled
One number for each entry.

compound | Brittle Fracture Index (BFI)
CCC1OC(=O)C(C)C(O[C@H]2C[C@@](C)(OC)[C@@H](O)C(C)O2)C(C)[C@@H](OC2OC(C)CC(N(C)C)[C@H]2O)[C@@](C)(O)C[C@@H](C)CN(C)[C@H](C)[C@@H](O)[C@]1(C)O (stereo partly shown) [Form J] | 0.11
CC[C@H]1OC(=O)[C@H](C)[C@@H](O[C@H]2C[C@@](C)(OC)[C@@H](O)[C@H](C)O2)[C@H](C)[C@@H](O[C@@H]2O[C@H](C)C[C@H](N(C)C)[C@H]2O)[C@](C)(O)C[C@@H](C)CN(C)[C@H](C)[C@@H](O)[C@]1(C)O [Form A, azithromycin dihydrate, reference compound] | 0.10
CCC1OC(=O)C(C)C(O[C@H]2C[C@@](C)(OC)[C@@H](O)C(C)O2)C(C)[C@@H](OC2OC(C)CC(N(C)C)[C@H]2O)[C@@](C)(O)C[C@@H](C)CN(C)[C@H](C)[C@@H](O)[C@]1(C)O (stereo partly shown) [Form M] | 0.10

As a next step, examine the compound that follows.
Query: For the compound CCC1OC(=O)C(C)C(O[C@H]2C[C@@](C)(OC)[C@@H](O)C(C)O2)C(C)[C@@H](OC2OC(C)CC(N(C)C)[C@H]2O)[C@@](C)(O)C[C@@H](C)CN(C)[C@H](C)[C@@H](O)[C@]1(C)O (stereo partly shown) [Form F] , give its reported Brittle Fracture Index (BFI).
Reply: 0.37

Reference for the values: patent US20030228357A1
